Would you mind telling me the reported GI50 of each entry?
Tested on: UO-31
Assay: NCI tumour cell line growth inhibition, 48 h
Calls of active or inactive are those of the source. No stated cut-off is given here; in the data, active = GI50 up to about 1.1 µM and inactive = higher.

CCOC(=O)C1(C(=O)OCC)C[C@H](C)[C@](C)(O)C1    > 100 µM (inactive)
Cc1cccc(C(C)C)c1N1C(=O)C(=O)C(c2nc3ccccc3o2)C(=O)C1=O    > 100 µM (inactive)

Quick request: GI50 for each listed item, please.
1. O=C1Oc2ccccc2C(=O)/C1=C\Nc1nc(-c2ccccc2)cs1
2. O=C1NC(Nc2cccc(Cl)c2)=N/C1=C\c1ccc(Cl)c(Cl)c1
3. COc1cc2c(cc1OC)C(=O)Cc1ccc(OC)c(OC)c1CN(C)CC2
4. CNC(=S)N/N=C(\C)c1ccc(OC)cc1O
5. CC1C[C@@H]2C(=O)NC(=O)[C@@H]2c2c1c1ccccc1n2C (stereo partly specified)
6. CC(C)C(N)=O [ISOBUTYRAMIDE]
7. COc1ccc(-c2c(/C=N/OCC(=O)O)c3sc4ccccc4n3c2/C=N/OCC(=O)O)cc1
8. COCP1(=S)OC(C)CCN1C(C)C (stereo unspecified)

RESULT:
1. 7.8 µM (inactive)
2. 7.29 µM (inactive)
3. > 100 µM (inactive)
4. > 100 µM (inactive)
5. > 100 µM (inactive)
6. > 5000 µM (inactive)
7. 11.9 µM (inactive)
8. > 100 µM (inactive)

QUERY: Value wanted: GI50 (UO-31) of entry O=c1cc(-c2ccncc2)[nH]c2cc3c(cc12)OCO3
RESULT: > 100 µM (inactive)
